Values were extracted from ChEMBL document CHEMBL3399954.

Assay: Half life in Sprague-Dawley rat at 1 mg/kg, iv
Type: ADME, organism-based
Design: dose 1 mg/kg, route intravenous
Conditions: in vivo
endpoint: half-life (h)

>>> df
                                   compound   endpoint  numeric_readout
0  O=C(O)CC1NCCc2c1[nH]c1ccc(OCc3ccc(C4CCCC4)c(C(F)(F)F)c3)cc21 (single isomer, unassigned)  half-life             9.49

* * *

Assay: Half life in mouse liver microsomes
Type: ADME
endpoint: half-life

                                   molecule   endpoint    result
0  O=C(O)CC1NCCc2c1[nH]c1ccc(OCc3ccc(C4CCCC4)c(C(F)(F)F)c3)cc21 (single isomer, unassigned)  half-life  > 60 min

* * *

Experiment: Volume of distribution at steady state in Sprague-Dawley rat at 1 mg/kg, iv and 1 mg/kg, po
Format: ADME, organism-based
Details: in vivo, read-out: Vdss
endpoint: Vd

>>> print(df.to_string())
                                   molecule  endpoint     result
0  O=C(O)CC1NCCc2c1[nH]c1ccc(OCc3ccc(C4CCCC4)c(C(F)(F)F)c3)cc21 (single isomer, unassigned)        Vd  6.71 L/kg

* * *

Assay: Clearance in Sprague-Dawley rat at 1 mg/kg, iv and 1 mg/kg, po
Format: ADME, organism-based
Conditions: in vivo
endpoint: clearance (mL/min/kg)

                                   molecule  numeric_readout
0  O=C(O)CC1NCCc2c1[nH]c1ccc(OCc3ccc(C4CCCC4)c(C(F)(F)F)c3)cc21 (single isomer, unassigned)             10.7
